Assay system: rat maltase (partially purified alpha-glucosidase from intestinal rat powder)
Assay details: Intestinal alpha-glucosidase assay, maltose substrate (Glucose GO Kit)
pIC50: −log10 of the molar value.
The following compounds are listed with their measured pIC50 values.

| Query smiles | Readout relation | pIC50 |
| --- | --- | --- |
| COc1cc(-c2ncco2)ccc1NCCCCCCN1C[C@H](O)[C@@H](O)[C@H](O)[C@H]1CO | = | 8.15 |
| CS(=O)(=O)c1cc(NCc2cccc(CN3C[C@H](O)[C@@H](O)[C@H](O)[C@H]3CO)c2)cc(-c2ncccn2)c1 | = | 7.10 |
| Cc1cc(NCc2ccc(CN3C[C@H](O)[C@@H](O)[C@H](O)[C@H]3CO)cc2)cc(-c2ccc[nH]2)c1 | > | 9.00 |
| OC[C@@H]1[C@@H](O)[C@H](O)[C@@H](O)CN1Cc1cnc(CNc2cc(-c3ncccn3)cc(C3CC3)c2)cn1 | = | 6.26 |
| Cc1cc(NCc2cccc(CN3C[C@H](O)[C@@H](O)[C@H](O)[C@H]3CO)c2)cc(-c2cccnn2)c1 | = | 7.48 |
| Cc1cc(CN2CCOCC2)cc(NCc2ccc(CN3C[C@H](O)[C@@H](O)[C@H](O)[C@H]3CO)cc2)c1 | = | 7.24 |
| CN(Cc1ccc(CN2C[C@H](O)[C@@H](O)[C@H](O)[C@H]2CO)cc1)c1cc(-c2cccnn2)cc(C2CC2)c1 | > | 9.00 |
| OC[C@@H]1[C@@H](O)[C@H](O)[C@@H](O)CN1Cc1ccc(CNc2ccc(-c3ccc[nH]3)cc2)cc1 | = | 7.72 |
| OC[C@@H]1[C@@H](O)[C@H](O)[C@@H](O)CN1CCCCCCNc1cc(-c2cccnn2)cc(C2CC2)c1 | = | 8.22 |
| O=[N+]([O-])c1cc(-c2ccncc2)ccc1NCCc1ccc(CCN2C[C@H](O)[C@@H](O)[C@H](O)[C@H]2CO)cc1 | > | 9.00 |
| OC[C@@H]1[C@@H](O)[C@H](O)[C@@H](O)CN1CCCCCCNc1cc(-c2ncccn2)cc(C2CC2)c1 | = | 8.15 |
| OC[C@@H]1[C@@H](O)[C@H](O)[C@@H](O)CN1CCCCCCNc1ccc(-c2ncccn2)cc1C(F)(F)F | = | 7.72 |
| O=S(=O)(Nc1cc(NCCCCCCN2C[C@H](O)[C@@H](O)[C@H](O)[C@H]2CO)cc(-c2ncccn2)c1)C1CC1 | = | 8.30 |
| [N-]=[N+]=Nc1ccc(NCCNS(=O)(=O)NCCN2C[C@H](O)[C@@H](O)[C@H](O)[C@H]2CO)c([N+](=O)[O-])c1 | = | 6.54 |

====

Assay system: recombinant human GBA (beta-glucocerebrosidase) (Homo sapiens)
Sequence (P04062 40-536): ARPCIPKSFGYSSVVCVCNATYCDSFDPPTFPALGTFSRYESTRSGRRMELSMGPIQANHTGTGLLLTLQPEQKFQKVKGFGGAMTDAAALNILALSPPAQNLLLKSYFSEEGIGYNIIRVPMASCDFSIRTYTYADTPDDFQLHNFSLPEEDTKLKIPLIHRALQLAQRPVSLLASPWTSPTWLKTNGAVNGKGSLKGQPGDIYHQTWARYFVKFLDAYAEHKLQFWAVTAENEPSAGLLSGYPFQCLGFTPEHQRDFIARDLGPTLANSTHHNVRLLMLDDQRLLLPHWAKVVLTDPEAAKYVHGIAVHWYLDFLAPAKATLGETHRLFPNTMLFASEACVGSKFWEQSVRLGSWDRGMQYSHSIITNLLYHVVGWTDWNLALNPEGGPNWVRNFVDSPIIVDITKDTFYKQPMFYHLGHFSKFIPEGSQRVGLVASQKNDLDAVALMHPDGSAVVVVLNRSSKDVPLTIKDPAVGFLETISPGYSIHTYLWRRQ
Assay details: Beta-glucocerebrosidase (GBA, glucosylceramidase) assay (4-methylumbelliferyl-beta-D-pyranoside substrate, fluorescence)
pIC50: −log10 of the molar value.

| Compound | Readout relation | pIC50 |
| --- | --- | --- |
| COc1cc(NCCc2ccc(CCN3C[C@H](O)[C@@H](O)[C@H](O)[C@H]3CO)cc2)cc(C2=COCCO2)c1 | = | 5.45 |
| CC(=O)Nc1cc(NCCCCCCN2C[C@H](O)[C@@H](O)[C@H](O)[C@H]2CO)cc(-c2ncccn2)c1 | = | 5.01 |
| OC[C@@H]1[C@@H](O)[C@H](O)[C@@H](O)CN1CCCCCCNc1cc(-c2cccnn2)cc(C2CC2)c1 | = | 5.63 |
| [N-]=[N+]=Nc1ccc(NCCc2ccc(CCN3C[C@H](O)[C@@H](O)[C@H](O)[C@H]3CO)s2)c([N+](=O)[O-])c1 | = | 5.89 |
| O=[N+]([O-])c1cc(-c2ncccn2)ccc1NCc1cccc(CN2C[C@H](O)[C@@H](O)[C@H](O)[C@H]2CO)c1 | = | 4.49 |
| O=[N+]([O-])c1cc(-c2ccc[nH]2)ccc1NCc1ccc(CN2C[C@H](O)[C@@H](O)[C@H](O)[C@H]2CO)cc1 | = | 4.38 |
| N#Cc1cc(NCc2cccc(CN3C[C@H](O)[C@@H](O)[C@H](O)[C@H]3CO)c2)cc(-c2ccc[nH]2)c1 | = | 4.22 |
| [N-]=[N+]=Nc1ccc(NCCc2cncc(CCN3C[C@H](O)[C@@H](O)[C@H](O)[C@H]3CO)n2)c([N+](=O)[O-])c1 | = | 4.79 |
| OC[C@@H]1[C@@H](O)[C@H](O)[C@@H](O)CN1CCCCCCNc1cc(-c2ncccn2)cc(C(F)(F)F)c1 | = | 6.51 |
| O=[N+]([O-])c1cc(N2CC3CC2CO3)ccc1NCc1ccc(CN2C[C@@H](O)[C@H](O)[C@@H](O)[C@@H]2CO)cc1 (stereo in doubt) | < | 4.00 |
| CS(=O)(=O)c1cc(NCc2cccc(CN3C[C@H](O)[C@@H](O)[C@H](O)[C@H]3CO)c2)cc(N2CCOCC2)c1 | < | 4.00 |
| [N-]=[N+]=Nc1ccc(NCc2ccc(Cc3ccc(CN4C[C@H](O)[C@@H](O)[C@H](O)[C@H]4CO)cc3)cc2)c([N+](=O)[O-])c1 | = | 5.04 |
| Cc1cc(NCc2cccc(CN3C[C@H](O)[C@@H](O)[C@H](O)[C@H]3CO)c2)cc(-c2ccc[nH]2)c1 | < | 4.00 |
| [N-]=[N+]=Nc1ccc(NCCc2cc(Br)cc(CCN3C[C@H](O)[C@@H](O)[C@H](O)[C@H]3CO)c2)c([N+](=O)[O-])c1 | = | 6.17 |
| OC[C@@H]1[C@@H](O)[C@H](O)[C@@H](O)CN1CCc1ccc(CCNc2cc(Cl)cc(-c3ncccn3)c2)cc1 | = | 5.57 |
| OC[C@@H]1[C@@H](O)[C@H](O)[C@@H](O)CN1Cc1cccc(CNc2ccc(N3CCOCC3)cc2)c1 | < | 4.00 |
| COc1cc(CN2CCCO2)cc(NCCCCCCN2C[C@H](O)[C@@H](O)[C@H](O)[C@H]2CO)c1 | = | 5.21 |
| N#Cc1cc(NCc2cccc(CN3C[C@H](O)[C@@H](O)[C@H](O)[C@H]3CO)c2)cc(-c2ncccn2)c1 | = | 4.06 |
| O=Cc1cc(-c2ncccn2)ccc1NCCCCCCN1C[C@H](O)[C@@H](O)[C@H](O)[C@H]1CO | = | 6.02 |
| [N-]=[N+]=Nc1ccc(NCC/C=C/CCN2C[C@H](O)[C@@H](O)[C@H](O)[C@H]2CO)c([N+](=O)[O-])c1 | = | 5.81 |
| OC[C@@H]1[C@@H](O)[C@H](O)[C@@H](O)CN1CCCCCCNc1ccc(-c2ncccn2)cc1C(F)(F)F | = | 5.87 |

This collection of values is drawn from patent US20250197372A1.
